System: Mannheimia haemolytica
Test: minimum inhibitory concentration (MIC)
Conditions: isolate (source animal id): 40
Overview of recorded minimum inhibitory concentration for various molecules

- Molecule: "CCCNC[C@]1(O)[C@H](C)O[C@@H](O[C@H]2[C@H](C)[C@@H](O[C@@H]3O[C@H](C)C[C@H](N(C)C)[C@H]3O)[C@](C)(O)C[C@@H](C)CN[C@H](C)[C@@H](O)[C@](C)(O)[C@@H](CC)OC(=O)[C@@H]2C)C[C@@]1(C)OC [Tulathromycin]"
  minimum inhibitory concentration: "≤ 8 µg/mL"
- Molecule: "CN1C[C@@H]2C[C@H]1CN2c1cc2c(cc1F)c(=O)c(C(=O)O)cn2C1CC1 [Danofloxacin]"
  minimum inhibitory concentration: "0.5 µg/mL"
- Molecule: "CC[C@H]1OC(=O)C[C@@H](O)[C@H](C)[C@@H](O[C@@H]2O[C@H](C)[C@@H](O[C@H]3C[C@@](C)(O)[C@@H](O)[C@H](C)O3)[C@H](N(C)C)[C@H]2O)[C@@H](CC=O)C[C@@H](C)C(=O)/C=C/C(C)=C/[C@@H]1CO[C@@H]1O[C@H](C)[C@@H](O)[C@@H](OC)[C@H]1OC [Tylosin]"
  minimum inhibitory concentration: "32 µg/mL"
- Molecule: "CCCN1C[C@H](C)[C@@H](O)[C@](C)(O)[C@@H](CC)OC(=O)[C@H](C)[C@@H](O[C@H]2C[C@@](C)(OC)[C@@H](O)[C@H](C)O2)[C@H](C)[C@@H](O[C@@H]2O[C@H](C)C[C@H](N(C)C)[C@H]2O)[C@](C)(O)C[C@H]1C [Gamithromycin]"
  minimum inhibitory concentration: "≤ 1 µg/mL"
- Molecule: "NC[C@@H]1O[C@H](O[C@H]2[C@@H](O)[C@H](O[C@@H]3[C@@H](O)[C@H](N)C[C@H](N)[C@H]3O[C@H]3O[C@H](CN)[C@@H](O)[C@H](O)[C@H]3N)O[C@@H]2CO)[C@H](N)[C@@H](O)[C@@H]1O [Neomycin]"
  minimum inhibitory concentration: "> 32 µg/mL"
- Molecule: "CC1(C)S[C@@H]2[C@H](NC(=O)[C@H](N)c3ccccc3)C(=O)N2[C@H]1C(=O)O [Ampicillin]"
  minimum inhibitory concentration: "≤ 0.25 µg/mL"

###

Overview of recorded minimum inhibitory concentration for various compounds
Tested on: Mannheimia haemolytica
Assay: minimum inhibitory concentration (MIC)
Conditions: isolate (source animal id): 288

- Smiles String: "COc1cc(Cc2cnc(N)nc2N)cc(OC)c1OC.Cc1cc(NS(=O)(=O)c2ccc(N)cc2)no1"
  Operator Symbol: "≤"
  minimum inhibitory concentration / µg/mL: 2
- Smiles String: "CC1(C)S[C@@H]2[C@H](NC(=O)Cc3ccccc3)C(=O)N2[C@H]1C(=O)O"
  Operator Symbol: "="
  minimum inhibitory concentration / µg/mL: 0.5
- Smiles String: "COc1cc(NS(=O)(=O)c2ccc(N)cc2)nc(OC)n1"
  Operator Symbol: ">"
  minimum inhibitory concentration / µg/mL: 256
- Smiles String: "C=C[C@]1(C)C[C@@H](OC(=O)CSCCN(CC)CC)[C@]2(C)[C@H](C)CC[C@]3(CCC(=O)[C@H]32)[C@@H](C)[C@@H]1O"
  Operator Symbol: "="
  minimum inhibitory concentration / µg/mL: 8
- Smiles String: "CCN1CCN(c2cc3c(cc2F)c(=O)c(C(=O)O)cn3C2CC2)CC1"
  Operator Symbol: "≤"
  minimum inhibitory concentration / µg/mL: 0.12

Taken from the supplement of paper PMC8612539.
